Listing of entries alongside the reported kon.
Molecular target: T1, recombinant LAIR1 (human, UniProt Q6GTX8 22-165, limits assumed)
T1 construct: also called LAIR1 (Octet analyte)
T1 chain: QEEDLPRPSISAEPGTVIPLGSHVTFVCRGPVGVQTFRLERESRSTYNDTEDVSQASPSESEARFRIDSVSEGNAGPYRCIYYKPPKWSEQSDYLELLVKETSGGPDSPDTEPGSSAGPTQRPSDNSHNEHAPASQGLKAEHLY
Assay: BLI (Octet), mAb on protein A sensor, recombinant LAIR1 0.1-200 nM, 1:1 fit
All answers are understood in M⁻¹ s⁻¹, so give the number only.

- binder: "LA-259-2 (antibody, V domains shown, Rabbit monoclonal IgG) VH: QSVKESGGRLVTPGTPLTLTCTASGFSLYKYNIQWVRQAPGKGLEYIGASTYAGYTYYASWAKGRVTISRTSTTVDLKMTSPTTEDTATYFCARHIDGDYSGYALWGPGTLVTISS VL: ELVMTQTPASVSAAVGGTVTIKCQASQSIGTWFAWYQQKPGQSPKLLIYGPSKLASGVPPRFKGSGSGTEFTLTISDLECDDAATYYCQSNGGSISNGWGSFGGGTEVVVK"
  units: "M⁻¹ s⁻¹"
  value reported: 216000

Q. Need kon, item LA-121 (antibody, V domains shown, Rabbit monoclonal IgG) VH: EQSVEESGGRLVTPGTPLTLTCTASGFSLYKYNIQWVRQAPGKGLEYIGASTYAGYTYYASWAIGRVTISRTSTTVDLKMTSPTTEDTATYFCARHIDGDYSGYALWGPGTLVTISS VL: ELDLTQTPASVSAAVGGTVTIKCQASQSIDTWFGWYQQKPGQSPKLLIYGASKLASGVPPRFKGSGSGTEFTLTISDLECADAATYYCQNTYYGVRYLGGAFGGGTEVEIK
A. 190000

Q. Field entry: LA-258-3 (antibody, V domains shown, Rabbit monoclonal IgG) VH: QSVKESGGDLVKPEGSLTLTCKASGFSFSNSYYMCWVRQAPGKGLEWIACIYTGSTSGTYYASWVNGRFTISKTPSTTVTLQMTSLTVADTATYFCSRKLTNFNGAYLDLWGPGTLVTISS VL: ELVLTQTPASVEAAVGGTVTINCQASQSISNLLAWYQQKPGQPPKVLIYKASTLASGVPSRFKGSGSGTDFTLTISDLECADAATYYCQANNGGSDNNFGGGTEVVVKA
A. 397000

Q. Field entry: LA-258-2 (antibody, V domains shown, Rabbit monoclonal IgG) VH: QSVKESGGDLVKPEGSLTLTCKASGFSFSNSYYMCWVRQAPGKGLEWIACIYTGSTSGTYYASWVNGRFTISKTPSTTVTLQMTSLTVADTATYFCSRKLTNFNGAYLDLWGPGTLVTISS VL: ELVMTQTPSSVEAAVGGTVTIKCQASQSIYSYLAWYQQKPGQPPKVLIYKASTLASGVPSRFKGSGSGTDFTLTISDLECADAATYYCQANNGGSDNNFGGGTEVEIK
A. 238000
